Molecular target: Hepatocyte nuclear factor 4-alpha (Homo sapiens) (UniProt P41235)
Sequence (P41235 whole entry, looked up): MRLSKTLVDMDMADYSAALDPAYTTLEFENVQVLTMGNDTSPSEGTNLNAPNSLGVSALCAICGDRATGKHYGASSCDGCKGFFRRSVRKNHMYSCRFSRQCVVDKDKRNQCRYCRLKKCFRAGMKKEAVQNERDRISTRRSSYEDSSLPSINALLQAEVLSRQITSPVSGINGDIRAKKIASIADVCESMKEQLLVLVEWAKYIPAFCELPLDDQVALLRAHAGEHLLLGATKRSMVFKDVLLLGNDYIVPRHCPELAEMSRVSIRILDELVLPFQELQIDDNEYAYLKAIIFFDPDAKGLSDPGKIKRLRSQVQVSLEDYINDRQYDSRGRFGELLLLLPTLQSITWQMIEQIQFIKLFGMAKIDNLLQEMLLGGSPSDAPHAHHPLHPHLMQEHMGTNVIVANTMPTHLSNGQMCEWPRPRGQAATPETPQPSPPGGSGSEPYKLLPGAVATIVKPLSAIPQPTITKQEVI
Assay: change in HNF4A binding to DNA, retest, confirmation, biochemical, fluorescence polarization, FITC-DNA (AID 1224897)
Conditions: 1 h, at 12.5 µM, active compounds read high
The other results are listed elsewhere or left out.
Recorded Metric: activity change (%)
Respond with the bare value in %.

Some solved entries appear below for comparison.
# Compound, Recorded Value
measured = [
    ("C/C(=N/Nc1nc(-c2ccccc2)c(CC(=O)O)s1)c1ccccc1", 57.6),
    ("Cn1cccc1/C=C1\\SC(=S)N(NC(=O)c2ccc(Cl)cc2)C1=O", 72.5),
]

Challenge: Supply recorded activity change for C#CCOCCOCCOCCNc1nc(N2CCN(C(=O)C([C@@H](C)O)n3cc([C@@H](N)CCCCN)nn3)CC2)nc(N2CCN(C(=O)[C@H](CCCCN)n3cc(CN)nn3)CC2)n1 (stereo partly specified) here.
Response given: 108

Challenge: Supply recorded activity change for "COc1ccc(-c2nc3cc(C)ccn3c2NC2CCCCC2)cc1SC1CCCCC1" here.
Response given: 37.6

Challenge: Supply recorded activity change for CCC(C)N1C(=O)S/C(=C/c2ccc(Sc3nc4ccccc4[nH]3)o2)C1=O (stereo unspecified) here.
Response given: 76.4

Challenge: Supply recorded activity change for "O=C1/C(=C/c2coc3ccc(O)cc3c2=O)SC(=S)N1c1ccccc1" here.
Response given: 57
